Assay: Times to onset, minimal and maximal, observed in the indexed observations. [column 'DELAI' in source]
Details: human
Metric: Hepatotoxicity (time to onset)

Examples with answers:
CCCCC(=O)N(Cc1ccc(-c2ccccc2-c2nnn[nH]2)cc1)[C@H](C(=O)O)C(C)C	1 month - 4.5 months
CN1CCN(C2=Nc3ccccc3Oc3ccc(Cl)cc32)CC1 [LOXAPINE]	1 week - 3 weeks
CN1Cc2c(N)cccc2C(c2ccccc2)C1 (stereo unspecified) [NOMIFENSINE]	3 days - 3 months
CC(=O)[C@H]1CC[C@H]2[C@@H]3CC[C@H]4C[C@H](O)CC[C@]4(C)[C@H]3C(=O)C[C@]12C.C[C@]12CC[C@@H](O)C[C@@H]1CC[C@H]1[C@@H]3CC[C@H](C(=O)CO)[C@@]3(C)CC(=O)[C@@H]12	3 days - 5 days
CN(C)[C@@H]1C(O)=C(C(N)=O)C(=O)[C@@]2(O)C(O)=C3C(=O)c4c(O)cccc4[C@@](C)(O)[C@H]3C[C@@H]12 [TETRACYCLINE]	3 days - 2 months

List reported Hepatotoxicity (time to onset) for each of these molecules:
1. N[C@@H](Cc1ccc(N(CCCl)CCCl)cc1)C(=O)O
2. CC(=O)[C@@]1(O)CC[C@H]2[C@@H]3C=C(C)C4=CC(=O)CC[C@@H]4[C@H]3CC[C@@]21C [NOMEGESTROL]
3. CCOC(Nc1ccc(C(=O)O)cc1)C(=O)c1ccc(-c2ccccc2)cc1 (stereo unspecified) [XENAZOIC ACID]
4. CC(C)OC(=O)C(C)(C)Oc1ccc(C(=O)c2ccc(Cl)cc2)cc1 [FENOFIBRATE]
5. C#C[C@]1(O)CC[C@H]2[C@@H]3CCC4=Cc5oncc5C[C@]4(C)[C@H]3CC[C@@]21C [DANAZOL]
6. CC(=O)[C@]1(O)Cc2c(O)c3c(c(O)c2[C@@H](O[C@H]2C[C@H](N)[C@H](O)[C@H](C)O2)C1)C(=O)c1ccccc1C3=O [IDARUBICIN]
7. O=P1(N(CCCl)CCCl)NCCCO1 (stereo unspecified) [CYCLOPHOSPHAMIDE ANHYDROUS]

*A*
1. 6 days - 7 weeks
2. 4 months - 5 months
3. 1 week - 2 weeks
4. 1 day - 3 years
5. 3 days - 20 years
6. 8 days - 6 months
7. 2 days - 21 years

List reported Hepatotoxicity (time to onset) for each of these molecules:
1. CO/N=C(\C(=O)N[C@@H]1C(=O)N2C(C(=O)O)=C(CSc3nc(=O)c(=O)[nH]n3C)CS[C@H]12)c1csc(N)n1 [CEFTRIAXONE]
2. Cc1ccc(O)c2ncccc12 [TILIQUINOL]
3. CCN(CC)C(=O)C1(c2ccccc2)CC1CN (stereo unspecified)
4. CNCCCC12CCC(c3ccccc31)c1ccccc12 [MAPROTILINE]

*A*
2 days - 25 days
4 days
6 months
2 days - 4 years
